The measured values listed here are drawn from ChEMBL document CHEMBL4219256.

Tested on: HCT-116
Assay: Antiproliferative activity against human HCT116 cells over-expressing DHODH after 72 hrs by MTT assay
Assay type: functional, cell-based
pIC50: −log10 of the molar value.

| molSmiles | reportedRelation | pIC50 |
| --- | --- | --- |
| Cc1c(-c2ccc(-c3ccccc3)cc2)nc2ccccc2c1C(=O)O | = | 5.07 |
| O=C(O)c1cc(-c2ccc(-c3ccccn3)cc2)nc2ccccc12 | = | 4.40 |
| Cc1ccncc1-c1ccc(-c2cc(C(=O)O)c3ccccc3n2)cc1 | = | 4.97 |
| Cc1c(-c2ccc(-c3cccnc3Cl)cc2)nc2ccc(F)cc2c1C(=O)O | = | 5.52 |
| COC(=O)c1cc(-c2ccc(-c3cccnc3)cc2)nc2ccccc12 | = | 5.21 |
| O=C(O)c1cc(-c2ccc(-c3ncccn3)cc2)nc2ccccc12 | < | 4.30 |
| O=C(O)c1cc(-c2ccc(-c3cccnc3F)cc2)nc2ccccc12 | = | 4.95 |
| CC(C)c1ccc(-c2cc(C(=O)O)c3ccccc3n2)cc1 | = | 4.72 |
| Cc1c(-c2ccc(-c3cccnc3Cl)cc2)nc2cnccc2c1C(=O)O | < | 4.00 |
| Cc1c(-c2ccc(-c3cccnc3F)cc2)nc2ccc(F)cc2c1C(=O)O | = | 5.24 |
| O=C(O)c1cc(-c2ccc(-c3ccc(F)nc3)cc2)nc2ccccc12 | = | 4.77 |
| COc1ccccc1-c1ccc(-c2cc(C(=O)O)c3ccccc3n2)cc1 | = | 5.55 |
| O=C(O)c1cc(-c2ccc(C3CCCCC3)cc2)nc2ccccc12 | = | 5.37 |

====

Test: Apparent volume of distribution during terminal phase in CD-1 mouse at 20 mg/kg, po
Format: ADME, organism-based
Settings: in vivo, read-out: Vz/F

| molSmiles | Vd/F |
| --- | --- |
| Cc1c(-c2ccc(-c3cccnc3Cl)cc2)nc2ccc(F)cc2c1C(=O)O | 2.23 L/kg |

====

Assay: Solubility of the compound in water at pH 7.4
Format: physicochemical

| molSmiles | solubility |
| --- | --- |
| Cc1c(-c2ccc(-c3ccccc3F)cc2)nc2ccc(F)cc2c1C(=O)O | < 100 µg/mL |

====

Tested on: HL-60
Assay: Antiproliferative activity against human HL60 cells after 72 hrs by MTT assay
IC50 by entry:
recordedEndpoint: IC50 (µM)

| compound | quantitativeReadout |
| --- | --- |
| Cc1c(-c2ccc(-c3ccccc3F)cc2)nc2ccc(F)cc2c1C(=O)O [BREQUINAR] | 0.544 |
| Cc1c(-c2ccc(-c3ccccc3F)cc2)nc2cnc(C(F)(F)F)cc2c1C(=O)O | 0.401 |
| Cc1c(-c2ccc(-c3ccccc3)cc2)nc2cnc(C(F)(F)F)cc2c1C(=O)O | 2.67 |
| O=C(O)c1cc(-c2ccc(-c3cccnc3Cl)cc2)nc2ccccc12 | 7.12 |
| Cc1c(-c2ccc(-c3cccnc3Cl)cc2)nc2ccccc2c1C(=O)O | 15.3 |
| Cc1c(-c2ccc(-c3cccnc3Cl)cc2)nc2ccc(F)cc2c1C(=O)O | 9.28 |
| O=C(O)c1cc(-c2ccc(-c3ccccc3)cc2)nc2ccccc12 | 3.51 |
| Cc1c(-c2ccc(-c3ccccc3)cc2)nc2cnccc2c1C(=O)O | 7.08 |
| Cc1ccc(-c2ccc(-c3nc4ccc(F)cc4c(C(=O)O)c3C)cc2)c(Cl)n1 | 4.81 |
| Cc1ncccc1-c1ccc(-c2cc(C(=O)O)c3ccccc3n2)cc1 | 11.6 |

====

pIC50: −log10 of the molar value.
Below are pIC50 values recorded for Dihydroorotate dehydrogenase (quinone), mitochondrial (Homo sapiens, UniProt Q02127).
recordedEndpoint: pIC50

| molSmiles | result |
| --- | --- |
| COC(=O)c1cc(-c2ccc(N3CCCCC3)cc2)nc2ccccc12 | < 3.70 |
| COC(=O)c1cc(-c2ccc(-c3ccccc3)cc2)nc2ccccc12 | < 3.70 |
| O=C(O)c1cc(-c2ccc(-c3ncccn3)cc2)nc2ccccc12 | < 3.70 |

====

Listed here are molecules together with their documented pIC50.
Tested on: MIA PaCa-2
Experiment: Antiproliferative activity against human MIAPaCa2 cells after 72 hrs by MTT assay
Format: functional, cell-based
pIC50: −log10 of the molar value.
recordedEndpoint: pIC50

| molSmiles | recordedEndpoint | result |
| --- | --- | --- |
| O=C(O)c1cc(-c2ccc(-c3cncnc3)cc2)nc2ccccc12 | pIC50 | < 4.30 |
| Cc1ccc(-c2ccc(-c3nc4cnccc4c(C(=O)O)c3C)cc2)c(Cl)n1 | pIC50 | < 4.00 |
| O=C(O)c1cc(-c2ccccc2)nc2ccccc12 | pIC50 | < 4.00 |

====

Tested on: HCT-116
Test: Antiproliferative activity against human HCT116 cells over-expressing DHODH after 72 hrs by MTT assay
Assay type: functional, cell-based
Class (by IC50) -- low = under 5 µM, intermediate = from 5 µM up to 10 µM, high = 10 µM and over

| compound | cat |
| --- | --- |
| O=C(O)c1cc(-c2ccc(N3CCOCC3)cc2)nc2ccccc12 | high |
| Cc1c(-c2ccc(-c3ccccc3F)cc2)nc2cnc(C(F)(F)F)cc2c1C(=O)O | low |
| Cc1c(-c2ccc(-c3cccnc3F)cc2)nc2ccc(Cl)cc2c1C(=O)O | intermediate |
| O=C(O)c1cc(-c2ccc(-c3cccnc3)cc2)nc2ccccc12 | high |
| O=C(O)c1cc(-c2ccc(-c3cccnc3C(F)(F)F)cc2)nc2ccccc12 | low |
| O=C(O)c1cc(-c2ccc(-c3cnccc3C(F)(F)F)cc2)nc2ccccc12 | low |
| O=C(O)c1cc(-c2ccc(-c3cncnc3)cc2)nc2ccccc12 | high |
| COC(=O)c1cc(-c2ccc(N3CCCCC3)cc2)nc2ccccc12 | high |
| Cc1ccc(-c2ccc(-c3nc4ccc(F)cc4c(C(=O)O)c3C)cc2)c(F)n1 | high |
| O=C(O)c1cc(-c2ccccc2)nc2ccccc12 [CINCHOPHEN] | high |
| Cc1ccc(-c2ccc(-c3nc4cnccc4c(C(=O)O)c3C)cc2)c(Cl)n1 | high |
| Cc1ccc2nc(-c3ccc(-c4cccnc4Cl)cc3)c(C)c(C(=O)O)c2c1 | high |
| Cc1c(-c2ccc(-c3ccccc3)cc2)nc2cnccc2c1C(=O)O | intermediate |

====

Entries with reported IC50 on UniProt Q02127
recordedEndpoint: IC50

| molSmiles | assayTarget | result |
| --- | --- | --- |
| COC(=O)c1cc(-c2ccc(C3CCCCC3)cc2)nc2ccccc12 | UniProt Q02127 | > 200 µM |
| O=C(O)c1cc(-c2ccc(-c3cncnc3)cc2)nc2ccccc12 | UniProt Q02127 | > 200 µM |
| COC(=O)c1cc(-c2ccc(-c3cnccc3C(F)(F)F)cc2)nc2ccccc12 | UniProt Q02127 | > 50 µM |
